# credit: patent US20210221899A1

# study-target: T1, human NGF (human, UniProt P01138 122-241)
# T1 construct: also called human Nerve Growth Factor; hN
# T1 chain: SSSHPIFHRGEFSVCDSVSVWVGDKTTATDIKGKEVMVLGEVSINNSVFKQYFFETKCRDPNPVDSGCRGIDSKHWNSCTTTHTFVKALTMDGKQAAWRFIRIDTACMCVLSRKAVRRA
# run-description: SPR (Biacore T200), 100 nM mAb on NGF chip, similarity to parent mAb
value-kind: Percent Similarity Score (KD on hN) (%)
Write down the numeric answer in % and omit the unit.

What does the data say about its Percent Similarity Score (KD on hN)? Entry: can9L12VL_N28A (antibody, V domains shown) VH: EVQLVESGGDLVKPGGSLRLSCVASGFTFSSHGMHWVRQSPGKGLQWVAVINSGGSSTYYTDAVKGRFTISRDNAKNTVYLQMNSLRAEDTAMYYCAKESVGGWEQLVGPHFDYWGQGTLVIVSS VL: QSVLTQPTSVSGSLGQRVTISCSGSTNAIGILGASWYQLFPGKAPKLLVYGNGNRPSGVPDRFSGADSGDSVTLTITGLQAEDEADYYCQSFDTTLGAHVFGGGTHLTVL
2.1

What does the data say about its Percent Similarity Score (KD on hN)? Entry: can9L12VH_V101A (antibody, V domains shown) VH: EVQLVESGGDLVKPGGSLRLSCVASGFTFSSHGMHWVRQSPGKGLQWVAVINSGGSSTYYTDAVKGRFTISRDNAKNTVYLQMNSLRAEDTAMYYCAKESAGGWEQLVGPHFDYWGQGTLVIVSS VL: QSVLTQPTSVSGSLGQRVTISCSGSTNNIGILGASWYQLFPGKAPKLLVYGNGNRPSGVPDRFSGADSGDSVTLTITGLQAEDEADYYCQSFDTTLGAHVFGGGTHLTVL
5.29
